Across several publications, the following IC50 results were reported for malonyl-CoA decarboxylase prepared from rat heart (Rattus norvegicus).
property-measured: IC50 (nM)

Examples with answers:
compound	property-measured	readout-number
O=CN(Cc1ccncc1)c1ncc(C(O)(C(F)(F)F)C(F)(F)F)s1	IC50	463
CC(C)N(C(=O)Nc1ccc(CC(=O)O)cc1)c1ccc2nc(S)sc2c1	IC50	42
Cc1ccc(C2=NOC(C(O)(C(F)(F)F)C(F)(F)F)C2)cc1 (stereo not drawn)	IC50	388
CC(C)CN(C(=O)Nc1ccc(C(F)(F)F)cc1)c1ccc2nc(S)sc2c1	IC50	31
CCCCN(C(=O)NCC)c1ncc(C(O)(C(F)(F)F)C(F)(F)F)s1	IC50	213

P = O=C(N1CCOCC1)N(CCCCc1nnn[nH]1)c1ccc(C(O)(C(F)(F)F)C(F)(F)F)cc1
Q = N#Cc1cccc(CS(=O)(=O)c2nccn2-c2ccc(C(O)(C(F)(F)F)C(F)(F)F)cc2)c1
R = Cc1cc(-c2ccncc2)n(-c2ccc(C(O)(C(F)(F)F)C(F)(F)F)cc2)n1
S = OC(c1ccc(-n2nc(-c3ccccn3)cc2-c2ccccn2)cc1)(C(F)(F)F)C(F)(F)F
T = O=S(=O)(Nc1ncc(C(O)(C(F)(F)F)C(F)(F)F)s1)c1ccc(Cl)cc1
Arrange these 5 compounds in increasing order of IC50. API: response body holds the labels in the requested order.
P, Q, T, R, S
